// note: pIC50 values for ROCK2 (Homo sapiens) were reported in different studies
Here pIC50 is given on a logarithmic scale as minus log10 of the concentration in mol/L.

Req: Reported pIC50 for `O=C(NC1CCN(C2CC2)CC1)c1cccc([C@@H](CO)NC(=O)c2ccc(-c3ccncc3)cc2)c1` : what is it?
Resp: 9.27

Req: # repeat for `COc1cc(N2CCC3(CCN(S(=O)(=O)c4ccc5[nH]c(=O)[nH]c(=O)c5c4)CC3)C2=O)ccc1-c1cn[nH]c1`
Resp: 6.39

Req: Queued: `CN1CCN(c2ccc(C(=O)N3CCC4(CC3)CCN(c3ccc(-c5ccc6cn[nH]c6c5)cc3)C4=O)cc2)CC1`
Resp: 6.97

Req: Lookup `CC(C)NC(=O)c1c[nH]c2ccc(-c3nccc(Nc4ccc5[nH]ncc5c4)n3)cc12`
Resp: 6.94

###

Field: pIC50. System: ROCK2 (Homo sapiens). Provenance: assorted publications.
Schema: pIC50 number; meaning minus log10 of the concentration expressed in molar units.

Req: For the molecule shown here, `COc1cc(NC(=O)[C@H](N)Cc2cccc(C(F)(F)F)c2)ccc1-c1cn[nH]c1` , give the reported pIC50.
Resp: 7.85

Req: Repeat with `CC(C)NC(=O)c1cc2ccc(-c3nc(Nc4ccc5[nH]ncc5c4)c4scnc4n3)cc2[nH]1`
Resp: 7.00

Req: Then what about the molecule `O=C(Cc1cccc(C(F)(F)F)c1)Nc1ccc2c(c1)OCc1cnccc1-2` ?
Resp: 6.80

Req: Now the molecule `CC(C)N1CCC(CNC(=O)c2cccc([C@@H](CO)NC(=O)c3ccc(-c4ccncc4)cc3)c2)CC1`
Resp: 9.51

Req: Please give the result for `O=C(NC1CCCC1)c1cccc([C@@H](CO)NC(=O)c2ccc(-c3cn[nH]c3)cc2F)c1` too.
Resp: 8.63

###

Compiled record: IC50 values for ROCK2 (Homo sapiens, UniProt O75116) across several sources.
Report as a plain number; the unit nM is understood.

Req: Recorded IC50 for `COc1cc(N2CCC3(CCN(C(=O)c4ccc(C)s4)CC3)C2=O)ccc1-c1cn[nH]c1` , please?
Resp: 372

Req: Now consider COc1cccc(C(CN)NC(=O)c2cc(-c3ccc4[nH]nc(C)c4c3)ncn2)c1 (centres unmarked) and answer again.
Resp: 12

Req: Now this one: `COc1cc(N2CCC3(CCN(C(=O)c4ccc(Br)cc4)CC3)C2=O)ccc1-c1cn[nH]c1`
Resp: 33

Req: What do you have for COc1ccc(-c2csc(N[C@H]3C[C@]4(C3)C[C@H](Oc3ncccc3C(N)=O)C4)n2)cc1 (some centres unmarked) ?
Resp: 115

Req: Thanks! And `Cc1[nH]ncc1-c1ccc2cc(C(=O)NCc3c(Cl)cccc3C3(O)CC3)[nH]c2n1` ?
Resp: 10.1

Req: // same read-out, input: `COc1cc(N2CCC3(CCN(C(=O)c4ccc5nc(C(F)(F)F)cnc5c4)CC3)C2=O)ccc1-c1cn[nH]c1`
Resp: 63

###

The entries below pair molecules with pIC50 values for ROCK2 (Homo sapiens, UniProt O75116), as found in several publications.
Answer as the number alone; pIC50 is minus log10 of concentration in mol/L.

Req: Return pIC50 measured with ROCK2 (Homo sapiens, UniProt O75116) given this molecule: `NC[C@@H](C(=O)Nc1cc2ccncc2s1)c1ccc(COC(=O)[C@H]2C[C@@H](CO[N+](=O)[O-])C2)cc1`
Resp: 8.98

Req: Also check `NC(=O)c1cccnc1Oc1ccc(CC(=O)Nc2nnc(-c3cccnc3)s2)cc1F`
Resp: 6.38

Req: For Cc1c(C(=O)N[C@H]2C[C@]3(C2)C[C@H](Oc2nn(C4CC4)cc2C(N)=O)C3)cnn1-c1ccc(F)cc1F (stereo partly shown) then?
Resp: 6.65

Req: Try `O=C(C1CC(F)(F)C1)N1Cc2ccc(-c3nccc(Nc4ccc(-c5cn[nH]c5)cn4)n3)cc2C1` next.
Resp: 6.86

###

The entries that follow carry IC50 values tested on ROCK2 (Homo sapiens, UniProt O75116), drawn from several published reports.
# number only, unit nM dropped from output

Req: Tell me the measured IC50 of CC(C)CC1NC(=O)N([C@H]2C[C@@]3(C[C@H](Oc4ncccc4C(N)=O)C3)C2)C1=O (some centres unmarked) , please.
Resp: 29

Req: Another molecule: `COc1cc(-c2cn[nH]c2)cc(F)c1C(=O)N[C@H](C)c1ccccc1`
Resp: 1490

Req: For `COc1ccc(C(=O)N2CCC3(CC2)CCN(c2cccc(-c4ccc5cn[nH]c5c4)c2)C3=O)cc1` then?
Resp: 1680

Req: Moving on to `COc1ccn2nc(NC(=O)Cc3ccc(Oc4ncccc4C(N)=O)cc3)nc2c1`
Resp: 68.5

Req: Then what about the molecule `CC(C)n1c(NC(=O)Cc2ccc(Oc3ncccc3C(N)=O)c(F)c2)nc2ccccc21` ?
Resp: 218

###

Collected set of log10 of IC50 measured with ROCK2 (Homo sapiens) across studies.
Please keep in mind that the values are log10 of IC50 expressed in nM.

Req: Query (compound): `O=C(Nc1ccc2c(c1)OCc1cnccc1-2)c1ccccc1` ; field requested: log10 of IC50
Resp: 3.68

Req: Record: CC(C)(O)COc1ccc2c(C(=O)NC3CC4(C3)CC(Oc3nc5ccsc5cc3C(N)=O)C4)cnn2c1 (stereo not drawn)
Resp: 0.83

Req: Same thing, different compound: COc1cccc(C2(NC(=O)c3cccc(-c4ccc5[nH]nc(C)c5c4)c3)CCNC2)c1 (stereo not drawn)
Resp: 0.60

Req: // same read-out, input: `Cn1c(-n2ccnc2)cc2ccc(-c3nccc(Nc4ccc(-c5cn[nH]c5)c(F)c4)n3)cc21`
Resp: 2.23

Req: And the next one, O=C(NC1CCCC(N2CCOCC2)C1)c1cc2ccc(-c3nccc(Nc4ccc(-c5cn[nH]c5)cc4)n3)cc2[nH]1 (stereo not drawn) ?
Resp: 0.95

Req: Now this one: `CC(C)(CCCO[N+](=O)[O-])C(=O)OCc1ccc([C@@H](CN)C(=O)Nc2cc3ccncc3s2)cc1`
Resp: 1.22

###

Field IC50: reported value for ROCK2 (Homo sapiens, UniProt O75116); entries drawn from several documents.
Please reply with the bare figure in nM and do not write the unit itself.

Req: // IC50 lookup, key: `COc1cccc(C(=O)Nc2ccc3c(c2)OCc2cnccc2-3)c1`
Resp: 2590

Req: Likewise for `COc1cc(-c2cn[nH]c2)ccc1C(=O)N[C@H](CO)c1c(F)cccc1F` ?
Resp: 11.5

Req: Queued: `O=C(OC1CC2(CNC2)C1)N1Cc2ccc(-c3nccc(Nc4ccc(-c5cn[nH]c5)cc4)n3)cc2C1`
Resp: 16

Req: Then what about the compound `COc1cc(F)c(C(=O)N2CCC3(CC2)CCN(c2ccc(-c4cn[nH]c4)c(OC)c2)C3=O)c(F)c1` ?
Resp: 5

Req: Try this compound too: Cc1c(CC2NC(=O)N([C@H]3C[C@@]4(C[C@H](Oc5ncccc5C(N)=O)C4)C3)C2=O)cnn1C (stereo partly drawn)
Resp: 885

Req: Note, next up: `CC(C)CC(=O)OCCOc1cccc(CN2CC[C@@H](Nc3cccc4cnccc34)C2)c1`
Resp: 1490

Req: Request: `O=C(NC1CCC1)c1cccc([C@@H](CO)NC(=O)c2ccc(-c3ccncc3)cc2)c1`
Resp: 1.01

Req: NC(=O)c1cccnc1O[C@H]1C[C@@]2(C[C@H](Nc3nnc(-c4ccc(F)cc4F)o3)C2)C1 (stereo partly drawn) ?
Resp: 537

###

Header: pIC50 / ROCK2 (Homo sapiens) / multiple publications
pIC50: −log10 of the molar value.

Req: Give its pIC50 value. Item: `O=C(NCC1CCCCC1)c1cccc([C@@H](CO)NC(=O)c2ccc(-c3ccncc3)cc2)c1`
Resp: 9.00

Req: // same read-out, input: `COc1cc(-c2cn[nH]c2)ccc1-n1c(C)nn(Cc2ccccc2)c1=O`
Resp: 5.70 to 6.60

Req: Same thing, different compound: O=C1C(Nc2cccc(F)n2)CCN1c1ccc(-c2n[nH]c(=O)c3ccccc23)cc1 (centres unmarked)
Resp: 7.00 to 8.00

Req: Also `CN(C)CCNC(=O)COc1cccc(CNC(=O)c2ccc(-c3ccncc3)cc2)c1` , if possible.
Resp: 7.72

Req: `Cc1c(F)cccc1CN1C(=O)N(c2ccc(-c3cn[nH]c3)cc2)CC12CCOCC2` ?
Resp: > 8.52

Req: And the next one, `CCN(CC)C(=O)c1cc2ccc(-c3nccc(Nc4ccc(-c5cn[nH]c5)cc4)n3)cc2[nH]1` ?
Resp: 6.59

Req: Thanks! And `Cn1c(C(=O)N2CC(F)(F)C2)cc2c1CN(c1nc(C#N)cc(Nc3ccc(-c4cn[nH]c4)cc3)n1)CC2` ?
Resp: 6.30 to 7.30

Req: Further, for `COc1cccc(Cn2cnn(-c3ccc(-c4ncnc5[nH]ccc45)cc3)c2=O)c1` ?
Resp: 6.60 to 7.30
